# Target Or Test System: T1, soluble human GPNMB (recombinant extracellular domain) (human, UniProt Q14956 23-498)
# T1 construct: also called huGPNMB; recombinant human GPNMB extracellular domain; not shown: C-terminal polyhistidine or Avi-His tag
# T1 sequence: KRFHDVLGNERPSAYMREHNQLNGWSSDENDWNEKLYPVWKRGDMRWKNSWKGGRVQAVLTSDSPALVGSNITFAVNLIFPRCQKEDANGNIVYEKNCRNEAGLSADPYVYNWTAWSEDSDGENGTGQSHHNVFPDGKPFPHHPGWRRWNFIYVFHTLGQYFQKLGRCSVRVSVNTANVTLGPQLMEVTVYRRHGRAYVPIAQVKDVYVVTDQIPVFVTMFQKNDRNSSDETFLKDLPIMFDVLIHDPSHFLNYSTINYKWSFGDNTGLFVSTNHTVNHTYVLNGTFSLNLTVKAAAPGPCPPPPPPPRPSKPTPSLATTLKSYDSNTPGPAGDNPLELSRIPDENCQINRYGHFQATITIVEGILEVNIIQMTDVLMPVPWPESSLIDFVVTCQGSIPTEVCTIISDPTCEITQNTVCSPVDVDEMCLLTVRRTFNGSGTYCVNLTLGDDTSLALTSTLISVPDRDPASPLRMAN
# Experiment Description: SPR Biacore, IgG captured
Quick list: koff per entry.
The response must be a number in s⁻¹ with no trailing unit.

Examples from the recorded data:
anti-GPNMB antibody GPN-94 (antibody, V domains shown) VH: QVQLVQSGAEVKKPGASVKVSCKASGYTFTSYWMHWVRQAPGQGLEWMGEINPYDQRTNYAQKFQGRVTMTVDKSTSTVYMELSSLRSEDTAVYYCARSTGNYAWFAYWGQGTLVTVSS VL: DIVMTQSPDSLAVSLGERATINCKTSQDVSPSLAWYQQKPGQPPKLLIYSASKRYTGVPDRFSGSGSGTDFTLTISSLQAEDVAVYYCQQHYSIPLTFGGGTKVEIK    0.00042
anti-GPNMB antibody GPN-96 (antibody, V domains shown) VH: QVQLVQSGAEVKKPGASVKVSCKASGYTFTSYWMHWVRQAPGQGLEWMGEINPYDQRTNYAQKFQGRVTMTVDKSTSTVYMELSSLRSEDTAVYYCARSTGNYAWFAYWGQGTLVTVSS VL: DIVMTQSPDSLAVSLGERATINCKASQDVSPSLAWYQQKPGQPPKLLIYRASYRYTGVPDRFSGSGSGTDFTLTISSLQAEDVAVYYCQQHYSIPLTFGGGTKVEIK    0.0002

Read the next record carefully.
Data request: Report koff for anti-GPNMB antibody GPN-82 (antibody, V domains shown) VH: QVQLQESGPGLVKPSETLSLTCTVSGISITTGNYRWSWIRQPPGKGLEWIGYIYYSGTIIYNPSLKSRVTITRDTSKNQFSLELSSVTAADTAVYYCARDLTHWYFDVWGQGTLVTVSS VL: DIVMTQSPDSLAVSLGERATINCKSSRSVDYYGIGFLNWYQQKPGQPPKLLIYATSTQGSGVPDRFSGSGSGTDFTLTISSLQAEDVAVYYCQQQKEVPPTFGGGTKVEIK
Data returned: 0.0024
